# TEST SYSTEM: His6-TEV-PPARγ-(234-505) (Homo sapiens)
# Construct: The His6-TEV-PPARγ-(234-505) protein for assay was expressed and purified; TEV cleavage site (N); made in house
# Sequence (P37231 234-505): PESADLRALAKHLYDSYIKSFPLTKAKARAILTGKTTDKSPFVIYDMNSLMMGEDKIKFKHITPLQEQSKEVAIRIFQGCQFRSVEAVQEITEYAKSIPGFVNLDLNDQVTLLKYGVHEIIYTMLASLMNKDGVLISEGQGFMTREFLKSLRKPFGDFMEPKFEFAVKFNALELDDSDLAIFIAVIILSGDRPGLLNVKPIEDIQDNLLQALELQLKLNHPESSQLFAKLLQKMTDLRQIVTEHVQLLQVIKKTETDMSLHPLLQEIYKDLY
# TEST PROTOCOL: TR-FRET Assay to Measure Co-R Peptide Recruitment to PPARγ
# Type: biochemical
# APPLIED CONDITIONS: Co-R peptide (SMRT-ID2) recruitment; top final concentration 20 μM; read-out: TR-FRET i-Ag; AC50
RESULT TYPE: AC50 (nM)
State the answer as a number, implicitly in nM.

Find the measured AC50 of COc1cc(-c2cc(C(=O)N3CCC(C(=O)NC45CC(CO)(C4)OC5C)CC34CC4)n[nH]2)c(F)cn1 (mixture of isomers) [Example 518] and report it.
149

Find the measured AC50 of COc1cc(-c2cc(C(=O)N3CC[C@H](C(=O)NCc4ncccc4C)CC34CC4)n[nH]2)c(F)cn1 [Example 359] and report it.
8

Find the measured AC50 of COc1cc(-c2cc(C(=O)N3CCC(C(=O)NCc4nccc(C(F)F)n4)CC3)n[nH]2)c(Cl)cn1 [Example 238] and report it.
839

Find the measured AC50 of COc1cc(-c2cc(C(=O)N3CC[C@H](C(=O)NC4CCC5(COC5)c5cccnc54)CC34CC4)n[nH]2)c(F)cn1 (stereo partly drawn) [Example 496] and report it.
9.6

Find the measured AC50 of COc1cc(-c2cc(C(=O)N3CC[C@H](C(=O)NC4CN(CC5(F)CC5)C4)CC34CC4)n[nH]2)c(F)cn1 [Example 406] and report it.
34.1

Find the measured AC50 of COc1cc(-c2cc(C(=O)N3CCC(C(=O)NCc4ccc5[nH]c(C)cc5c4)CC3)n[nH]2)c(Cl)cn1 [Example 203] and report it.
77.4

Find the measured AC50 of COc1cc(-c2cc(C(=O)N3CCC(C(=O)NC4CN(CC(C)(C)F)CC4(F)F)CC34CC4)n[nH]2)c(F)cn1 (mixture of isomers) [Example 379] and report it.
12.2

Find the measured AC50 of COc1cc(-c2cc(C(=O)N3[C@@H]4CC[C@H]3C[C@H](C(=O)NC3CCC5(CCO5)CC3)C4)n[nH]2)c(F)cn1 (mixture of isomers) [Example 297] and report it.
120

Find the measured AC50 of CO[C@]1(C(F)(F)F)CC[C@@H](NC(=O)[C@@H]2CCN(C(=O)c3cc(-c4cc(C)ncc4F)[nH]n3)C3(CC3)C2)CC1 (single isomer, unassigned) [Example 293-A] and report it.
281

Find the measured AC50 of COc1cc(-c2cc(C(=O)N3CCC(C(=O)NC4CCN(CC(F)(F)CO)C4)CC34CC4)n[nH]2)c(F)cn1 (mixture of isomers) [Example 459] and report it.
11.7

Find the measured AC50 of COc1cc(-c2cc(C(=O)N3CCC(C(=O)NCc4ccc5cn[nH]c5c4)CC3)n[nH]2)c(Cl)cn1 [Example 180] and report it.
144

Find the measured AC50 of COc1cc(-c2cc(C(=O)N3CC[C@H](C(=O)NCc4ncc(OC(C)C)cc4Cl)CC34CC4)n[nH]2)c(F)cn1 [Example 491] and report it.
0.3

Find the measured AC50 of COc1cc(-c2cc(C(=O)N3CCC(C(=O)NCC45CCC(O)(CC4)C5)CC34CC4)n[nH]2)c(F)cn1 (single isomer, unassigned) [Example 333-A] and report it.
1960

Find the measured AC50 of COc1cc(-c2cc(C(=O)N3CC[C@H](C(=O)NCc4ncc(N5CC6CC5CN6)cc4Cl)CC34CC4)n[nH]2)c(F)cn1 (single isomer, unassigned) [Example 462-B] and report it.
14.4

Find the measured AC50 of COc1cc(-c2cc(C(=O)N3CC[C@H](C(=O)NCc4cccc(Cl)c4)CC3(C)C)n[nH]2)c(Cl)cn1 (single isomer, unassigned) [Example 255-A] and report it.
49.6

Find the measured AC50 of COc1cc(-c2cc(C(=O)N3CCC(C(=O)NCC4CCn5cncc5C4)CC34CC4)n[nH]2)c(F)cn1 (single isomer, unassigned) [Example 342-A] and report it.
50.8

Find the measured AC50 of COc1cnc(CNC(=O)[C@H]2CCN(C(=O)c3cc(-c4cc(OC)ncc4F)[nH]n3)C3(CC3)C2)c(Cl)c1 [Example 402] and report it.
10.8

Find the measured AC50 of COc1cc(-c2cc(C(=O)N3CCC(NC(=O)C4CCC(O)(C(F)(F)F)CC4)CC34CC4)n[nH]2)c(F)cn1 (single isomer, unassigned) [Example 347-C] and report it.
5080
